- MEASUREMENT_DESCRIPTION: Cytotoxicity against Homo sapiens (human) HeLa cells after 3 days by microscopic analysis
- Assay type: cell-based
MEASURED_QUANTITY: MCC at 72 h (µg/mL)

[[record]]
compound = "Brc1ccc(C2=NN(c3ccccc3)C(c3ccc(OCc4ccccc4)cc3)C2)cc1 (stereo unspecified)"
measured_quantity = "MCC at 72 h"
relation = "="
test_value = 100

[[record]]
compound = "c1ccc(COc2ccc(C3CC(c4ccccc4)=NN3c3ccccc3)cc2)cc1 (stereo unspecified)"
measured_quantity = "MCC at 72 h"
relation = "="
test_value = 100

[[record]]
compound = "Clc1ccc(C2=NN(c3ccccc3)C(c3ccc(OCc4ccccc4)cc3)C2)cc1 (stereo unspecified)"
measured_quantity = "MCC at 72 h"
relation = "≥"
test_value = 20

[[record]]
compound = "Cc1ccc(C2=NN(c3ccccc3)C(c3ccc(OCc4ccccc4)cc3)C2)cc1 (stereo unspecified)"
measured_quantity = "MCC at 72 h"
relation = "="
test_value = 100


====

# EC50 annotations
- Test system: Vesicular stomatitis virus
- MEASUREMENT_DESCRIPTION: Antiviral activity against Vesicular stomatitis virus infected HEL cells assessed as inhibition of virus-induced cytopathic effect after 3 days by MTT assay
- Assay type: functional, organism-based
- ASSAY_CONDITIONS: 72 h
MEASURED_QUANTITY: EC50

[[record]]
compound = "Brc1ccc(C2=NN(c3ccccc3)C(c3ccc(OCc4ccccc4)cc3)C2)cc1 (stereo not drawn)"
test_value = "> 20 µg/mL"

[[record]]
compound = "Clc1ccc(C2=NN(c3ccccc3)C(c3ccc(OCc4ccccc4)cc3)C2)cc1 (stereo not drawn)"
test_value = "> 20 µg/mL"

[[record]]
compound = "Cc1ccc(C2=NN(c3ccccc3)C(c3ccc(OCc4ccccc4)cc3)C2)cc1 (stereo not drawn)"
test_value = "> 20 µg/mL"

[[record]]
compound = "c1ccc(COc2ccc(C3CC(c4ccccc4)=NN3c3ccccc3)cc2)cc1 (stereo not drawn)"
test_value = "> 20 µg/mL"

[[record]]
compound = "O=c1[nH]c(=O)n([C@H]2C[C@H](O)[C@@H](CO)O2)cc1/C=C/Br"
test_value = "> 250 µM"

[[record]]
compound = "Nc1nc2c(ncn2COC(CO)CO)c(=O)[nH]1"
test_value = "> 100 µM"

[[record]]
compound = "NC(=O)c1ncn([C@@H]2O[C@H](CO)[C@@H](O)[C@H]2O)n1"
test_value = "> 250 µM"

[[record]]
compound = "Nc1ccn(C[C@@H](CO)OCP(=O)(O)O)c(=O)n1"
test_value = "> 250 µM"


====

- MEASUREMENT_DESCRIPTION: Cytotoxicity against Chlorocebus aethiops (African green monkey) Vero cells after 3 days by microscopic analysis
- Assay type: cell-based
- ASSAY_CONDITIONS: chlorocebus sabaeus
MEASURED_QUANTITY: MCC at 72 h

[[record]]
compound = "c1ccc(COc2ccc(C3CC(c4ccccc4)=NN3c3ccccc3)cc2)cc1 (stereo not given)"
test_value = "100 µg/mL"

[[record]]
compound = "Clc1ccc(C2=NN(c3ccccc3)C(c3ccc(OCc4ccccc4)cc3)C2)cc1 (stereo not given)"
test_value = "100 µg/mL"

[[record]]
compound = "Clc1ccc(C2=NOC(c3ccc(OCc4ccccc4)cc3)C2)cc1 (stereo not given)"
test_value = "> 100 µg/mL"

[[record]]
compound = "Nc1ncnc2c1ncn2C[C@H](O)CO [(S)-DHPA]"
test_value = "> 250 µM"

[[record]]
compound = "c1ccc(COc2ccc(C3CC(c4ccccc4)=NO3)cc2)cc1 (stereo not given)"
test_value = "> 100 µg/mL"

[[record]]
compound = "Cc1ccc(C2=NN(c3ccccc3)C(c3ccc(OCc4ccccc4)cc3)C2)cc1 (stereo not given)"
test_value = "100 µg/mL"

[[record]]
compound = "NC(=O)c1ncn([C@@H]2O[C@H](CO)[C@@H](O)[C@H]2O)n1"
test_value = "> 250 µM"

[[record]]
compound = "Brc1ccc(C2=NN(c3ccccc3)C(c3ccc(OCc4ccccc4)cc3)C2)cc1 (stereo not given)"
test_value = "≥ 20 µg/mL"

[[record]]
compound = "Cc1ccc(C2=NOC(c3ccc(OCc4ccccc4)cc3)C2)cc1 (stereo not given)"
test_value = "> 100 µg/mL"

[[record]]
compound = "Brc1ccc(C2=NOC(c3ccc(OCc4ccccc4)cc3)C2)cc1 (stereo not given)"
test_value = "≥ 20 µg/mL"

